Record form. Attribute: Biodistribution Brain. Fill in for each entry.
Test system: PSMA-expressing LNCAP cancer xenografts
Assay: Biodistribution and tumor-to-background contrast ratios of 18F-labeled tracers
Format: in vivo, mouse (NODSCID 1L2RγKO male mice)
Conditions: 1 h
Write the answer as a number in % ID/g, unit excluded.

Asked: Fill in the recorded Biodistribution Brain for this compound, with PSMA-expressing LNCAP cancer xenografts as test system: C[N+](C)(Cc1cn(Cc2ccc(C(=O)NCCCC[C@H](NC(=O)N[C@@H](CCC(=O)O)C(=O)O)C(=O)O)cc2)nn1)C[B-](F)(F)[18F] [F-18 HTK-01070]
Given back: 0.04

Asked: Now the same for C[N+](C)(Cc1cn(Cc2ccc(C(=O)NCCCC[C@H](NC(=O)N[C@@H](CCC(=O)O)C(=O)O)C(=O)O)cn2)nn1)C[B-](F)(F)[18F] [^18F-HTK01130]
Given back: 0.04

Asked: Continue with C[N+](C)(Cc1cn(CC(=O)NCCOCCOCCC(=O)N[C@@H](Cc2ccc3ccccc3c2)C(=O)NCCCC[C@H](NC(=O)N[C@@H](CCC(=O)O)C(=O)O)C(=O)O)nn1)C[B-](F)(F)[18F] [^18F-HTK01146]
Given back: 0.01

Asked: Now consider C[N+](C)(Cc1cn(CC(=O)NC[C@H]2CC[C@H](C(=O)N[C@@H](Cc3ccc4ccccc4c3)C(=O)NCCCC[C@H](NC(=O)N[C@@H](CCC(=O)O)C(=O)O)C(=O)O)CC2)nn1)C[B-](F)(F)[18F] [^18F-HTK01157] and answer again.
Given back: 0.04

Asked: Likewise for C[N+](C)(Cc1ccc(C(=O)NCCCC[C@H](NC(=O)N[C@@H](CCC(=O)O)C(=O)O)C(=O)O)cc1)C[B-](F)(F)[18F] [F-18 HTK-01069] ?
Given back: 0.04

Asked: What do you get for O=C(O)CC[C@H](NC(=O)N[C@@H](CCCCNC(=O)[C@H](Cc1ccc2ccccc2c1)NC(=O)[C@H]1CC[C@H](CNC(=O)Cn2cc(C[n+]3ccc([B-](F)(F)[18F])cc3)nn2)CC1)C(=O)O)C(=O)O [^18F-PSMA-617-PyrBF3] ?
Given back: 0.03

Asked: Same for O=C(O)CC[C@H](NC(=O)N[C@@H](CCCCNC(=O)c1ccc(Cn2cc(C[n+]3ccc([B-](F)(F)[18F])cc3)nn2)nc1)C(=O)O)C(=O)O [^18F-PSMA PyrBF3]
Given back: 0.05

----------
Would you kindly list Biodistribution Intestine for each of these compounds?
System: PSMA-expressing LNCAP cancer xenografts
Experiment: Biodistribution and tumor-to-background contrast ratios of 18F-labeled tracers
Assay type: in vivo, mouse (NODSCID 1L2RγKO male mice)
Details: 1 h
Kindly provide the numeric value in % ID/g only, without the unit symbol.

Asked: Please state recorded Biodistribution Intestine (tested on PSMA-expressing LNCAP cancer xenografts) of C[N+](C)(Cc1cn(Cc2ccc(C(=O)NCCCC[C@H](NC(=O)N[C@@H](CCC(=O)O)C(=O)O)C(=O)O)cn2)nn1)C[B-](F)(F)[18F] [^18F-HTK01130]
Given back: 0.31

Asked: Repeat for the following compound: C[N+](C)(Cc1cn(CC(=O)NCCOCCOCCC(=O)N[C@@H](Cc2ccc3ccccc3c2)C(=O)NCCCC[C@H](NC(=O)N[C@@H](CCC(=O)O)C(=O)O)C(=O)O)nn1)C[B-](F)(F)[18F] [^18F-HTK01146]
Given back: 22.2

Asked: Proceed to O=C(O)CC[C@H](NC(=O)N[C@@H](CCCCNC(=O)[C@H](Cc1ccc2ccccc2c1)NC(=O)[C@H]1CC[C@H](CNC(=O)Cn2cc(C[n+]3ccc([B-](F)(F)[18F])cc3)nn2)CC1)C(=O)O)C(=O)O [^18F-PSMA-617-PyrBF3]
Given back: 20.8

Asked: Here is the next compound: C[N+](C)(Cc1ccc(C(=O)NCCCC[C@H](NC(=O)N[C@@H](CCC(=O)O)C(=O)O)C(=O)O)cc1)C[B-](F)(F)[18F] [F-18 HTK-01069]
Given back: 0.54

Asked: Moving on to the next compound: C[N+](C)(Cc1cn(Cc2ccc(C(=O)NCCCC[C@H](NC(=O)N[C@@H](CCC(=O)O)C(=O)O)C(=O)O)cc2)nn1)C[B-](F)(F)[18F] [F-18 HTK-01070]
Given back: 0.33

Asked: How about O=C(O)CC[C@H](NC(=O)N[C@@H](CCCCNC(=O)c1ccc(Cn2cc(C[n+]3ccc([B-](F)(F)[18F])cc3)nn2)nc1)C(=O)O)C(=O)O [^18F-PSMA PyrBF3] ?
Given back: 0.48

Asked: Another compound: C[N+](C)(Cc1cn(CC(=O)NC[C@H]2CC[C@H](C(=O)N[C@@H](Cc3ccc4ccccc4c3)C(=O)NCCCC[C@H](NC(=O)N[C@@H](CCC(=O)O)C(=O)O)C(=O)O)CC2)nn1)C[B-](F)(F)[18F] [^18F-HTK01157]
Given back: 13.0
